Below: a set of entries, each annotated with reported viability, T/C.
Test system: 885512-296-R-J2-PDC complex spheroid growth, % test/control
Assay: Anticancer human tumor 885512-296-R-J2-PDC patient-derived breast carcinoma cell line growth inhibition [AhR]
Details: second compound 10 µM; first compound 0.1 µM; active compounds read low
Excerpt: Multicellular complex tumor spheroid response to aryl hydrocarbon receptor antagonists in combination with a variety of drugs and investigational agents in selected tumor cell lines […] Compounds. […] If the clinical Cmax for an agent had not been determined, the highest concentration tested was 10 microM (Table 1). […]
Reply numerically in %, unit not repeated.

Field: example entries. Status: answers known.
compound="Nc1ccn(C2OC(CO)C(O)C2(F)F)c(=O)n1 (stereo unspecified) + CC(CO)NC(=O)c1cc(-c2ccc(Cl)cc2)nn(-c2cnn(C)c2)c1=O" target_of_assay="885512-296-R-J2-PDC complex spheroid growth, % test/control" observed_measurement=5.16
compound="COc1cccc2c1C(=O)c1c(O)c3c(c(O)c1C2=O)CC(O)(C(=O)CO)CC3OC1CC(N)C(O)C(C)O1 (stereo unspecified) + Cc1ccccc1N=Nc1ccc(NC(=O)c2ccnn2C)c(C)c1" target_of_assay="885512-296-R-J2-PDC complex spheroid growth, % test/control" observed_measurement=10.1
compound="COc1cc(Nc2ncc3c(n2)-c2ccc(Cl)cc2C(c2c(F)cccc2OC)=NC3)ccc1C(=O)O + Cc1ccccc1N=Nc1ccc(NC(=O)c2ccnn2C)c(C)c1" target_of_assay="885512-296-R-J2-PDC complex spheroid growth, % test/control" observed_measurement=40.9
compound="NS(=O)(=O)OCC1CC(n2ccc3c(NC4CCc5ccccc54)ncnc32)CC1O (stereo unspecified) + Cc1ccccc1N=Nc1ccc(NC(=O)c2ccnn2C)c(C)c1" target_of_assay="885512-296-R-J2-PDC complex spheroid growth, % test/control" observed_measurement=34.3

Exercise: Look at this compound and give its reported viability, T/C. Cn1ncnc1C1c2n[nH]c(=O)c3cc(F)cc(c23)NC1c1ccc(F)cc1 (stereo unspecified) + Cc1cncc(-c2nc(NCCc3c[nH]c4ccccc34)c3ncn(C(C)C)c3n2)c1
Solution: 21.6

Exercise: Moving on to CC1COCCN1c1cc(C2(S(C)(=N)=O)CC2)nc(-c2ccnc3[nH]ccc23)n1 (stereo unspecified) + CC(CO)NC(=O)c1cc(-c2ccc(Cl)cc2)nn(-c2cnn(C)c2)c1=O
Solution: 95.3

---

system: 885512-296-R-J2-PDC complex spheroid growth, % test/control; test: Anticancer human tumor 885512-296-R-J2-PDC cell line growth inhibition [AhR]; settings: second compound 0.316 µM; first compound 0.00949 µM; active compounds read low;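 further: spheroids exposed to compounds for seven days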
result type: viability, T/C (%)
Reply numerically in %, unit not repeated.

Field: example entries. Status: answers known.
compound="CCN(c1cc(-c2ccc(CN3CCOCC3)cc2)cc(C(=O)NCc2c(C)cc(C)[nH]c2=O)c1C)C1CCOCC1 + Cc1cncc(-c2nc(NCCc3c[nH]c4ccccc34)c3ncn(C(C)C)c3n2)c1" unit_tag=% observed_measurement=102
compound="O=C(C=Cn1cnc(-c2cc(C(F)(F)F)cc(C(F)(F)F)c2)n1)NNc1cnccn1 + Cc1ccccc1N=Nc1ccc(NC(=O)c2ccnn2C)c(C)c1" unit_tag=% observed_measurement=114
compound="CCc1c2c(nc3ccc(O)cc13)-c1cc3c(c(=O)n1C2)COC(=O)[C@]3(O)CC + CC(CO)NC(=O)c1cc(-c2ccc(Cl)cc2)nn(-c2cnn(C)c2)c1=O" unit_tag=% observed_measurement=3.71
compound="CC(C)CC(NC(=O)C(Cc1ccccc1)NC(=O)c1cnccn1)B(O)O (configuration not stated) + Cc1cncc(-c2nc(NCCc3c[nH]c4ccccc34)c3ncn(C(C)C)c3n2)c1" unit_tag=% observed_measurement=25.7

Exercise: Look at this compound and give its reported viability, T/C. Nc1ncn(C2CC(O)C(CO)S2)c(=O)n1 (configuration not stated) + Cc1cncc(-c2nc(NCCc3c[nH]c4ccccc34)c3ncn(C(C)C)c3n2)c1
Solution: 99.1

Exercise: Moving on to Nc1ncn(C2CC(O)C(CO)S2)c(=O)n1 (configuration not stated) + Cc1ccccc1N=Nc1ccc(NC(=O)c2ccnn2C)c(C)c1
Solution: 134

Exercise: Moving on to CCc1c2c(nc3ccc(O)cc13)-c1cc3c(c(=O)n1C2)COC(=O)[C@]3(O)CC + Cc1cncc(-c2nc(NCCc3c[nH]c4ccccc34)c3ncn(C(C)C)c3n2)c1
Solution: 6.14

Exercise: Moving on to O=C(C=Cn1cnc(-c2cc(C(F)(F)F)cc(C(F)(F)F)c2)n1)NNc1cnccn1 + CC(CO)NC(=O)c1cc(-c2ccc(Cl)cc2)nn(-c2cnn(C)c2)c1=O
Solution: 101

Exercise: Moving on to CCc1c2c(nc3ccc(O)cc13)-c1cc3c(c(=O)n1C2)COC(=O)[C@]3(O)CC + Cc1ccccc1N=Nc1ccc(NC(=O)c2ccnn2C)c(C)c1
Solution: 5.71

Exercise: Moving on to CC(C)CC(NC(=O)C(Cc1ccccc1)NC(=O)c1cnccn1)B(O)O (configuration not stated) + CC(CO)NC(=O)c1cc(-c2ccc(Cl)cc2)nn(-c2cnn(C)c2)c1=O
Solution: 11.2

Exercise: Moving on to O=C(C=Cn1cnc(-c2cc(C(F)(F)F)cc(C(F)(F)F)c2)n1)NNc1cnccn1 + Cc1cncc(-c2nc(NCCc3c[nH]c4ccccc34)c3ncn(C(C)C)c3n2)c1
Solution: 97.4

Exercise: Moving on to CC(C)CC(NC(=O)C(Cc1ccccc1)NC(=O)c1cnccn1)B(O)O (configuration not stated) + Cc1ccccc1N=Nc1ccc(NC(=O)c2ccnn2C)c(C)c1
Solution: 26.6

---

tested on: 885512-296-R-J2-PDC complex spheroid growth, % test/control; assay: Anticancer human tumor 885512-296-R-J2-PDC cell line growth inhibition [AhR]; conditions: second compound 0.1 µM; first compound 0.1 µM; active means viability on the fitted dose curve at most 10% of control; inactive means the rest;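 further: spheroids exposed to compounds for seven days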
Write down the outcome that applies. Available outcomes: 1.0 (active), 0.0 (inactive)

Look over these answered cases.
molecule="O=C(C=Cc1cccc(S(=O)(=O)Nc2ccccc2)c1)NO + Cc1ccccc1N=Nc1ccc(NC(=O)c2ccnn2C)c(C)c1" target_of_assay="885512-296-R-J2-PDC complex spheroid growth, % test/control" qualitative_label=0.0
molecule="CC1COCCN1c1cc(C2(S(C)(=N)=O)CC2)nc(-c2ccnc3[nH]ccc23)n1 (centres undefined) + Cc1cncc(-c2nc(NCCc3c[nH]c4ccccc34)c3ncn(C(C)C)c3n2)c1" target_of_assay="885512-296-R-J2-PDC complex spheroid growth, % test/control" qualitative_label=0.0
molecule="Nc1ncn(C2CC(O)C(CO)O2)c(=O)n1 (centres undefined) + CC(CO)NC(=O)c1cc(-c2ccc(Cl)cc2)nn(-c2cnn(C)c2)c1=O" target_of_assay="885512-296-R-J2-PDC complex spheroid growth, % test/control" qualitative_label=0.0
molecule="CC[C@@]1(O)C(=O)OCc2c1cc1n(c2=O)Cc2cc3c(CN(C)C)c(O)ccc3nc2-1 + Cc1cncc(-c2nc(NCCc3c[nH]c4ccccc34)c3ncn(C(C)C)c3n2)c1" target_of_assay="885512-296-R-J2-PDC complex spheroid growth, % test/control" qualitative_label=1.0
molecule="O=C(C=Cc1cccc(S(=O)(=O)Nc2ccccc2)c1)NO + Cc1cncc(-c2nc(NCCc3c[nH]c4ccccc34)c3ncn(C(C)C)c3n2)c1" target_of_assay="885512-296-R-J2-PDC complex spheroid growth, % test/control" qualitative_label=0.0
molecule="COc1cc(C2c3cc4c(cc3C(OC3OC5COC(C)OC5C(O)C3O)C3COC(=O)C23)OCO4)cc(OC)c1O (centres undefined) + Cc1ccccc1N=Nc1ccc(NC(=O)c2ccnn2C)c(C)c1" target_of_assay="885512-296-R-J2-PDC complex spheroid growth, % test/control" qualitative_label=0.0
molecule="Nc1ncn(C2CC(O)C(CO)O2)c(=O)n1 (centres undefined) + Cc1cncc(-c2nc(NCCc3c[nH]c4ccccc34)c3ncn(C(C)C)c3n2)c1" target_of_assay="885512-296-R-J2-PDC complex spheroid growth, % test/control" qualitative_label=0.0
molecule="COc1cc(C2c3cc4c(cc3C(OC3OC5COC(C)OC5C(O)C3O)C3COC(=O)C23)OCO4)cc(OC)c1O (centres undefined) + Cc1cncc(-c2nc(NCCc3c[nH]c4ccccc34)c3ncn(C(C)C)c3n2)c1" target_of_assay="885512-296-R-J2-PDC complex spheroid growth, % test/control" qualitative_label=0.0
molecule="Cn1ncnc1C1c2n[nH]c(=O)c3cc(F)cc(c23)NC1c1ccc(F)cc1 (centres undefined) + CC(CO)NC(=O)c1cc(-c2ccc(Cl)cc2)nn(-c2cnn(C)c2)c1=O" target_of_assay="885512-296-R-J2-PDC complex spheroid growth, % test/control" qualitative_label=0.0
molecule="CC1(C)CCC(CN2CCN(c3ccc(C(=O)NS(=O)(=O)c4ccc(NCC5CCOCC5)c([N+](=O)[O-])c4)c(Oc4cnc5[nH]ccc5c4)c3)CC2)=C(c2ccc(Cl)cc2)C1 + CC(CO)NC(=O)c1cc(-c2ccc(Cl)cc2)nn(-c2cnn(C)c2)c1=O" target_of_assay="885512-296-R-J2-PDC complex spheroid growth, % test/control" qualitative_label=0.0

Exercise: Can you look up the reported call for NS(=O)(=O)OCC1CC(n2ccc3c(NC4CCc5ccccc54)ncnc32)CC1O (centres undefined) + Cc1ccccc1N=Nc1ccc(NC(=O)c2ccnn2C)c(C)c1 for me?
Solution: 0.0

Exercise: Moving on to COc1cc(Nc2ncc3c(n2)-c2ccc(Cl)cc2C(c2c(F)cccc2OC)=NC3)ccc1C(=O)O + Cc1ccccc1N=Nc1ccc(NC(=O)c2ccnn2C)c(C)c1
Solution: 0.0

Exercise: Moving on to Nc1ccn(C2OC(CO)C(O)C2(F)F)c(=O)n1 (centres undefined) + Cc1cncc(-c2nc(NCCc3c[nH]c4ccccc34)c3ncn(C(C)C)c3n2)c1
Solution: 1.0

Exercise: Moving on to O=C(c1cc(Cc2n[nH]c(=O)c3ccccc23)ccc1F)N1CCN(C(=O)C2CC2)CC1 + Cc1cncc(-c2nc(NCCc3c[nH]c4ccccc34)c3ncn(C(C)C)c3n2)c1
Solution: 0.0
